// reported Half-Life % change over d0 per item
- MEASUREMENT DESCRIPTION: In vitro human liver microsomal stability assay
- Type: in vitro ADME
- ASSAY CONTEXT: human liver microsomes 2 mg per mL protein, NADPH-generating system, 1 μM test compound, 37±1° C., 0-240 min; degradation half-life, change relative to non-deuterated d0 (Example 1)

# example entries with known answers
molecule CC(C)Oc1ccc(-c2nc(-c3cccc4c3CC[C@@H]4NCCO)no2)cc1C#N [Example 1, reference compound] , Half-Life % change over d0 observed: 0.0%

molecule [2H]C(C)(C)Oc1ccc(-c2nc(-c3cccc4c3CC[C@@H]4NC([2H])([2H])C([2H])([2H])O)no2)cc1C#N , Half-Life % change over d0 observed: −4.6%

molecule [2H]C([2H])([2H])C([2H])(Oc1ccc(-c2nc(-c3cccc4c3CC[C@@H]4NCCO)no2)cc1C#N)C([2H])([2H])[2H] , Half-Life % change over d0 observed: 0.0%

More entries:
molecule [2H]C(C)(C)Oc1ccc(-c2nc(-c3cccc4c3CC[C@@H]4NCCO)no2)cc1C#N , Half-Life % change over d0 observed: −9.0%

molecule [2H]C(C)(C)Oc1ccc(-c2nc(-c3cccc4c3CC[C@]4([2H])NCCO)no2)cc1C#N , Half-Life % change over d0 observed: 17.9%

molecule [2H]C([2H])([2H])C([2H])(Oc1ccc(-c2nc(-c3cccc4c3CC[C@@H]4NC([2H])([2H])C([2H])([2H])O)no2)cc1C#N)C([2H])([2H])[2H] , Half-Life % change over d0 observed: 0.0%
